# TEST_TARGET: BRAF^V600E protein (Homo sapiens, UniProt P15056, V600E)
# Sequence (P15056 whole entry V600E): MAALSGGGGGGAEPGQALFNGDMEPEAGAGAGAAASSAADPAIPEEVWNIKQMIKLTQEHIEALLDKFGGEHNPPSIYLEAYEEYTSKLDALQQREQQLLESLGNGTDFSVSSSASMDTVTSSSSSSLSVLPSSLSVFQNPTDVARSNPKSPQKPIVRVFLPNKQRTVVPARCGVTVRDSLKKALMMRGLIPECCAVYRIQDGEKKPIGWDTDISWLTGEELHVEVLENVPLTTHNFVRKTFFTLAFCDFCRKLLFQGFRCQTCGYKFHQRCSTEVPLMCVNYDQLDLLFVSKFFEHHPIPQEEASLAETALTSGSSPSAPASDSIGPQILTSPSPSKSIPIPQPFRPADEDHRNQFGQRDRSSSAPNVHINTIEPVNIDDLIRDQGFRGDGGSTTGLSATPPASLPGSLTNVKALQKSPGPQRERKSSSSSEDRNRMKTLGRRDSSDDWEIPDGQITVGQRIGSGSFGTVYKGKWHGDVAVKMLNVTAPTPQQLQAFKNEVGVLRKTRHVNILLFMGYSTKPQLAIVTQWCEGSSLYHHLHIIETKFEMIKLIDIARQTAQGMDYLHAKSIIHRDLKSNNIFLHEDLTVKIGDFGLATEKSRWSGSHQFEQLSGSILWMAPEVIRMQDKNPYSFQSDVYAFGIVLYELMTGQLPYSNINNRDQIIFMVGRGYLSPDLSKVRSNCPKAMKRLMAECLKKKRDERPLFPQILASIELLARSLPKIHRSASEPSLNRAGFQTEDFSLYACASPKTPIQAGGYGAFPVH
# METHOD_DESCRIPTION: HiBiT cellular BRAF V600E degradation assay
# Format: cell-based
# MEASUREMENT_PARAMETERS: A375.10 cells (HiBiT tag knocked in at N-terminal of BRAF V600E), 24 h incubation; concentration at which 50% of total cellular BRAF V600E is degraded
Label key: Condition met means DC50 under 6 nM; Condition not met means DC50 of 6 nM or more.

Consider the worked cases shown below.
CCN(C)S(=O)(=O)Nc1ccc(F)c(C(=O)c2c[nH]c3ncc(-c4ccc(N5CC6(CN(C(=O)CN7CCC(c8ccc(NC9CCC(=O)NC9=O)cc8)CC7)C6)C5)nc4)cc23)c1F (stereo not shown): Condition not met
CCN(C)S(=O)(=O)Nc1ccc(F)c(C(=O)c2c[nH]c3ncc(-c4cnc(N5CCN(C(=O)CN6CC[C@H](c7ccc(NC8CCC(=O)NC8=O)cc7)C(F)(F)C6)CC5)nc4)cc23)c1F (stereo partly shown): Condition met
CCN(C)S(=O)(=O)Nc1cccc(C(=O)c2c[nH]c3ncc(-c4cnc(N5CCN(C(=O)CC6CCN(c7ccc(NC8CCC(=O)NC8=O)cc7F)CC6)CC5)nc4)cc23)c1F (stereo not shown): Condition met
CCCS(=O)(=O)Nc1ccc(F)c(C(=O)c2c[nH]c3ncc(-c4cnc(N5CCN(C(=O)CN6CCC(c7ccc(NC8CCC(=O)NC8=O)cc7)CC6)CC5)nc4)cc23)c1F (stereo not shown): Condition met
CCN(C)S(=O)(=O)Nc1ccc(F)c(C(=O)c2c[nH]c3ncc(-c4cnc(N5CCN(C(=O)CN6CCC(c7ccc(NC8CCC(=O)NC8=O)cn7)CC6)CC5)nc4)cc23)c1F (stereo not shown) [Example 21]: Condition not met
CC(C)S(=O)(=O)Nc1ccc(F)c(C(=O)c2c[nH]c3ncc(-c4cnc(N5CCN(C(=O)CN6CCC(c7ccc(C8CCC(=O)NC8=O)cc7F)CC6)CC5)nc4)cc23)c1F (stereo not shown): Condition not met

Check if DC50 falls below 6 nM for CCN(C)S(=O)(=O)Nc1ccc(F)c(C(=O)c2c[nH]c3ncc(-c4cnc(N5CC[C@@H](CC(=O)N6CCC(c7ccc(NC8CCC(=O)NC8=O)cc7)CC6)C5)nc4)cc23)c1F (stereo partly shown) .
Condition not met

Check if DC50 falls below 6 nM for CCN(C)S(=O)(=O)Nc1ccc(F)c(C(=O)c2c[nH]c3ncc(-c4cnc(N5CC6(CN(C(=O)CN7CCC(c8ccc(NC9CCC(=O)NC9=O)cc8)CC7)C6)C5)nc4)cc23)c1F (stereo not shown) .
Condition not met

Check if DC50 falls below 6 nM for CCN(C)S(=O)(=O)Nc1ccc(F)c(C(=O)c2c[nH]c3ncc(-c4cnc(N5CCN(C(=O)CN6CCC(c7ccc8c(c7)n(C)c(=O)n8C7CCC(=O)NC7=O)CC6)CC5)nc4)cc23)c1F (stereo not shown) .
Condition met
